Species on record: Homo sapiens
Test: Selectivity index, ratio of IC50 for recombinant human microsomal MAO-A to recombinant human microsomal MAO-B
Listing of entries alongside the reported Ratio IC50.
readoutType: Ratio IC50

compound: CC1Oc2ccccc2C2CC(c3ccccc3)=NN2C1=O (configuration not stated)
endpointResult: 1.7

compound: O=C1COc2ccccc2C2CC(c3ccc(F)cc3)=NN12 (configuration not stated)
endpointResult: 33.7

compound: Cc1ccc(C2=NN3C(=O)COc4ccc(Cl)cc4C3C2)cc1 (configuration not stated)
endpointResult: 2.4

compound: CC1Oc2ccccc2C2CC(c3ccccc3Cl)=NN2C1=O (configuration not stated)
endpointResult: 11.7

compound: CC1Oc2ccccc2C2CC(c3ccc(Cl)cc3)=NN2C1=O (configuration not stated)
endpointResult: 133

compound: O=C1COc2ccccc2C2CC(c3ccc(Cl)cc3)=NN12 (configuration not stated)
endpointResult: 0.9

compound: CC1Oc2ccccc2C2CC(c3ccc(F)cc3)=NN2C1=O (configuration not stated)
endpointResult: 271

compound: COc1ccc(C2=NN3C(=O)COc4c(Br)cc(Br)cc4C3C2)cc1 (configuration not stated)
endpointResult: 10.2

compound: O=C1COc2ccccc2C2CC(c3ccccc3Cl)=NN12 (configuration not stated)
endpointResult: 42.1

compound: O=C1COc2ccc(Cl)cc2C2CC(c3ccccc3)=NN12 (configuration not stated)
endpointResult: 23.4

compound: CC(C)c1ccc(C2=NN3C(=O)COc4ccccc4C3C2)cc1 (configuration not stated)
endpointResult: 17

compound: O=C1COc2ccc(Cl)cc2C2CC(c3ccc(Cl)cc3)=NN12 (configuration not stated)
endpointResult: 9.3

* * *

Species on record: Homo sapiens
Assay: Selectivity index, ratio of IC50 for recombinant human microsomal MAO-A to recombinant human microsomal MAO-B
readoutType: Ratio IC50

compound: O=C1COc2ccc(Cl)cc2C2CC(c3ccc(F)cc3)=NN12 (stereo not given)
readoutType: Ratio IC50
endpointResult: 19.2
//
compound: COc1ccc(C2=NN3C(=O)COc4ccc(Cl)cc4C3C2)cc1 (stereo not given)
readoutType: Ratio IC50
endpointResult: 22
//
compound: Cc1ccc(C2=NN3C(=O)C(C)Oc4ccccc4C3C2)cc1 (stereo not given)
readoutType: Ratio IC50
endpointResult: 1.3
//
compound: O=C1COc2ccc(Cl)cc2C2CC(c3ccccc3F)=NN12 (stereo not given)
readoutType: Ratio IC50
endpointResult: 103
//
compound: O=C1COc2ccccc2C2CC(c3ccccc3)=NN12 (stereo not given)
readoutType: Ratio IC50
endpointResult: 0.8

* * *

Biological target: Amine oxidase [flavin-containing] A (Homo sapiens)
Sequence (P21397 whole entry): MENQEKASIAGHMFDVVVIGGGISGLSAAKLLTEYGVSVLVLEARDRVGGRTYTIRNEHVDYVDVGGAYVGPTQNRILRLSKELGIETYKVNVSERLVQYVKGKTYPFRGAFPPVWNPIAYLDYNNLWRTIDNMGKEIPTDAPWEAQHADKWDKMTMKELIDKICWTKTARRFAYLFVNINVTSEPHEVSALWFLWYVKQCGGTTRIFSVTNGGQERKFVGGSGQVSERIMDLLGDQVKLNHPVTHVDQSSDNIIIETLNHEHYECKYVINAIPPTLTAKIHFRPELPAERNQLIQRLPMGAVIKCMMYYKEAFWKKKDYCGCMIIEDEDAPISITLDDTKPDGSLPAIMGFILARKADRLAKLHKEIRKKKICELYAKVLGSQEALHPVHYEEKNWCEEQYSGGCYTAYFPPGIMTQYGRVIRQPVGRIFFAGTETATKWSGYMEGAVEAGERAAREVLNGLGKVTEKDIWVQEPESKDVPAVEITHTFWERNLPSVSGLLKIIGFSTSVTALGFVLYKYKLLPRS
Assay: Inhibition of recombinant human microsomal MAO-A expressed in baculovirus-infected insect cells using p-tyramine as substrate assessed as H2O2 production pretreated for 15 mins followed by addition of Amplex Red, horseradish peroxidase and substrate measured for 15 mins by fluorimetric method
Listing of entries alongside the reported IC50.

molecule: O=C1COc2ccccc2C2CC(c3ccccc3Cl)=NN12 (stereo not drawn)
IC50 (µM): 55.7

molecule: Cc1ccc(C2=NN3C(=O)COc4ccc(Cl)cc4C3C2)cc1 (stereo not drawn)
IC50 (µM): 3.9

molecule: COc1ccc(C2=NN3C(=O)COc4c(Br)cc(Br)cc4C3C2)cc1 (stereo not drawn)
IC50 (µM): 4.76

molecule: O=C1COc2ccc(Cl)cc2C2CC(c3ccc(Cl)cc3)=NN12 (stereo not drawn)
IC50 (µM): 4.71

molecule: O=C1COc2ccc(Cl)cc2C2CC(c3ccc(F)cc3)=NN12 (stereo not drawn)
IC50 (µM): 4.65

molecule: O=C1COc2ccccc2C2CC(c3ccc(Cl)cc3)=NN12 (stereo not drawn)
IC50 (µM): 53.3

molecule: CC1Oc2ccccc2C2CC(c3ccccc3Cl)=NN2C1=O (stereo not drawn)
IC50 (µM): 4.05

molecule: O=C1COc2ccccc2C2CC(c3ccccc3)=NN12 (stereo not drawn)
IC50 (µM): 2.19

* * *

Molecular target: Amine oxidase [flavin-containing] B (Homo sapiens, UniProt P27338)
Sequence (P27338 whole entry): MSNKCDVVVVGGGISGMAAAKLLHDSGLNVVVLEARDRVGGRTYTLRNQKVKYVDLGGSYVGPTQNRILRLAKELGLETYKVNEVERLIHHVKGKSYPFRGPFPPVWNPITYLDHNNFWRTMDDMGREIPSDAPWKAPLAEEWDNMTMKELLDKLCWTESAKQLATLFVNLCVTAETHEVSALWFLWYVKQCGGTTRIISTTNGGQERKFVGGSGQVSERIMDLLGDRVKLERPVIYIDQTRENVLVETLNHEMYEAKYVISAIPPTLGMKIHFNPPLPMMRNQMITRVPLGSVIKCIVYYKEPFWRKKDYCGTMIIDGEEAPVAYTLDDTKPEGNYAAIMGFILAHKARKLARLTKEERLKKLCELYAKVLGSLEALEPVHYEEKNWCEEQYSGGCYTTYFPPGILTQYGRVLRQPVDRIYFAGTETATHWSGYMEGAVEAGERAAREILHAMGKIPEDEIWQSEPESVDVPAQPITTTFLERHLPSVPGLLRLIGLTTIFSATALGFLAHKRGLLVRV
Experiment: Inhibition of recombinant human microsomal MAO-B expressed in baculovirus-infected insect cells using p-tyramine as substrate assessed as H2O2 production pretreated for 15 mins followed by addition of Amplex Red, horseradish peroxidase and substrate measured for 15 mins by fluorimetric method
Listing of entries alongside the reported IC50.
readoutType: IC50 (µM)

molecule: CC1Oc2ccccc2C2CC(c3ccc(Cl)cc3)=NN2C1=O (stereo unspecified)
testedSystem: Amine oxidase [flavin-containing] B (Homo sapiens, UniProt P27338)
readoutType: IC50
endpointResult: 0.452
//
molecule: CC1Oc2ccccc2C2CC(c3ccc(F)cc3)=NN2C1=O (stereo unspecified)
testedSystem: Amine oxidase [flavin-containing] B (Homo sapiens, UniProt P27338)
readoutType: IC50
endpointResult: 0.221
//
molecule: O=C1COc2ccc(Cl)cc2C2CC(c3ccccc3F)=NN12 (stereo unspecified)
testedSystem: Amine oxidase [flavin-containing] B (Homo sapiens, UniProt P27338)
readoutType: IC50
endpointResult: 0.584
//
molecule: CC1Oc2ccccc2C2CC(c3ccccc3)=NN2C1=O (stereo unspecified)
testedSystem: Amine oxidase [flavin-containing] B (Homo sapiens, UniProt P27338)
readoutType: IC50
endpointResult: 34.7
//
molecule: O=C1COc2ccccc2C2CC(c3ccc(F)cc3)=NN12 (stereo unspecified)
testedSystem: Amine oxidase [flavin-containing] B (Homo sapiens, UniProt P27338)
readoutType: IC50
endpointResult: 1.78
//
molecule: COc1ccc(C2=NN3C(=O)COc4c(Br)cc(Br)cc4C3C2)cc1 (stereo unspecified)
testedSystem: Amine oxidase [flavin-containing] B (Homo sapiens, UniProt P27338)
readoutType: IC50
endpointResult: 0.467
//
molecule: Cc1ccc(C2=NN3C(=O)COc4ccc(Cl)cc4C3C2)cc1 (stereo unspecified)
testedSystem: Amine oxidase [flavin-containing] B (Homo sapiens, UniProt P27338)
readoutType: IC50
endpointResult: 1.63
//
molecule: CC(C)c1ccc(C2=NN3C(=O)COc4ccccc4C3C2)cc1 (stereo unspecified)
testedSystem: Amine oxidase [flavin-containing] B (Homo sapiens, UniProt P27338)
readoutType: IC50
endpointResult: 3.52
//
molecule: O=C1COc2ccccc2C2CC(c3ccccc3)=NN12 (stereo unspecified)
testedSystem: Amine oxidase [flavin-containing] B (Homo sapiens, UniProt P27338)
readoutType: IC50
endpointResult: 2.88
//
molecule: Cc1ccc(C2=NN3C(=O)C(C)Oc4ccccc4C3C2)cc1 (stereo unspecified)
testedSystem: Amine oxidase [flavin-containing] B (Homo sapiens, UniProt P27338)
readoutType: IC50
endpointResult: 45.2
//
molecule: O=C1COc2ccccc2C2CC(c3ccccc3Cl)=NN12 (stereo unspecified)
testedSystem: Amine oxidase [flavin-containing] B (Homo sapiens, UniProt P27338)
readoutType: IC50
endpointResult: 1.32
//
molecule: O=C1COc2ccc(Cl)cc2C2CC(c3ccccc3)=NN12 (stereo unspecified)
testedSystem: Amine oxidase [flavin-containing] B (Homo sapiens, UniProt P27338)
readoutType: IC50
endpointResult: 2.57
//
molecule: COc1ccc(C2=NN3C(=O)COc4ccc(Cl)cc4C3C2)cc1 (stereo unspecified)
testedSystem: Amine oxidase [flavin-containing] B (Homo sapiens, UniProt P27338)
readoutType: IC50
endpointResult: 2.72
//
molecule: O=C1COc2ccc(Cl)cc2C2CC(c3ccc(F)cc3)=NN12 (stereo unspecified)
testedSystem: Amine oxidase [flavin-containing] B (Homo sapiens, UniProt P27338)
readoutType: IC50
endpointResult: 0.242
//
molecule: O=C1COc2ccc(Cl)cc2C2CC(c3ccc(Cl)cc3)=NN12 (stereo unspecified)
testedSystem: Amine oxidase [flavin-containing] B (Homo sapiens, UniProt P27338)
readoutType: IC50
endpointResult: 0.504
//
molecule: CC1Oc2ccccc2C2CC(c3ccccc3Cl)=NN2C1=O (stereo unspecified)
testedSystem: Amine oxidase [flavin-containing] B (Homo sapiens, UniProt P27338)
readoutType: IC50
endpointResult: 0.348
